# test-method-notes: soluble fraction after stress (log2 fold change); higher = more stays soluble; pooled small domains, quantitative proteomics;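 also: 20 min heating vs room temperature control held 20 min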
# assay-conditions: stress: 75 degC
Given measured soluble fraction (log2), output YES if it is greater than or equal to -0.5 and NO if not.

Could you please find out whether `HMNKIGTIVSINGPIVKTAGDVGFVMHEMVYVGKEKLVGEVIGLTTDFTIVEVYEETSGIKPGETIEGT` has soluble fraction (log2) that meets -0.5 or exceeds it? NO

Is the recorded value of soluble fraction (log2) equal to or greater than -0.5 for this sequence? `HMTPQNAAAVLRYLSSGAIKGVGPSTAQRIVEKFGAESLDIIQNKPEELATIRGISLSKALAVSEEYNKQY` YES

# check: soluble fraction (log2) of `HMTTPDIIVPDVKGMTVAEAQKALEEKGFKVKLEEMTQEGAVPGDVIRIDPVAGTKRKEGAKITLLIARG` is greater than or equal to -0.5 YES

Assess whether reported soluble fraction (log2) for `HMRHTRQRQAVLDALVRSGQALSPQDLLGQAKSAVPSLNLSTVYRQIKGLQDAGQIVRVELPGQPPRFEM` sits at -0.5 or higher. YES

Tell me whether soluble fraction (log2) is at least -0.5 here: `HMSLPTSDWKRALSLFDEALSLPPDARDAWLAHTIAREPAVSPLLQKLLGAHRRVETNDILATLPR` NO

Decide: is the reported value of soluble fraction (log2) for `HMTGEEVLIMLGEKMKLIRNYNGYSQRQIAEILKIERSTYASYETGRNRPDIFAVQRFAKIFNVSVDYIL` equal to or greater than -0.5? YES

Decide: is the reported value of soluble fraction (log2) for `HMNDENIIIEEIKYFIKSNQIKEQEKLPSERNLSELFTVSRFSLRKALRHLVDTGYLYVKDKSGYYYQGD` equal to or greater than -0.5? NO

Hi, just wondering whether `HMRTYDPQAVELNNKALELINQGRLDSALLVYDQSIKTDKTYYFPHIGKSIIYMRKKDWNKAFEETQQAIK` shows soluble fraction (log2) of -0.5 or higher. YES

Identify whether the reported soluble fraction (log2) of the following sequence is -0.5 or greater: `HMGYLNDRQRLIKDFITENQPLKVSDLVKQFPNIGLSTLKKDLQYLRGEQVLTMIGKGKGSVYVLNKK` NO

Evaluate `HMKKEETEAEELEEKFTSAQIKQAYGILNDPRYKQGNYSGAVNVINKIAPGLADHPDVKNALKRANEEL` : soluble fraction (log2) at minimum -0.5? YES

Where these numbers come from: the domain aggregation screens of Martell et al. (2025)
